endpoint: melting point

molecule: COc1cccc(Oc2cccc3c2C2(COc4cc5c(cc42)OCCO5)C(=O)N3C)c1 (stereo not drawn)
result: 166 to 168 °C
//
molecule: O=C1N(Cc2ccccn2)c2ccccc2C12COc1c(Cl)cc3c(c12)OCCO3 (stereo not drawn)
result: 197 to 199 °C
//
molecule: CC(C)CCN1C(=O)C2(COc3cc(O)c(C(=O)C(F)(F)F)cc32)c2ccccc21 (stereo not drawn)
result: 87 to 88 °C
//
molecule: COC(=O)c1cccc(CN2C(=O)C3(COc4cc5c(cc43)OCCO5)c3ccccc32)c1 (stereo not drawn)
result: 89 to 97 °C
//
molecule: O=C(O)c1cccc(CN2C(=O)C3(COc4cc5c(cc43)OCCO5)c3ccccc32)c1 (stereo not drawn)
result: 254 to 258 °C
//
molecule: C[C@@H](CN1C(=O)C2(COc3cc4c(cc32)CCO4)c2ccccc21)OCc1ccccn1 (stereo partly drawn)
result: 46 to 54 °C
//
molecule: CC(C)(C)CCNC(=O)CN1C(=O)C2(COc3cc4c(cc32)CCO4)c2ccccc21 (stereo not drawn)
result: 161 to 163 °C
//
molecule: CCOC(=O)N1C(=O)C2(COc3cc4c(cc32)OCCO4)c2ccccc21 (stereo not drawn)
result: 198 to 200 °C
//
molecule: O=C1COc2cc3c(cc21)C1(CO3)C(=O)N(C[C@H]2CCCO2)c2ccccc21 (stereo partly drawn)
result: 142 to 144 °C
//
molecule: CN1C(=O)C2(COc3cc4c(cc32)OCCO4)c2c(O)cccc21 (stereo not drawn)
result: > 250 °C
//
molecule: C[C@@H](CN1C(=O)C2(COc3cc4c(cc32)CCO4)c2ccccc21)OCc1ccc(F)cc1 (stereo partly drawn)
result: 55 to 60 °C
//
molecule: O=C1Nc2c(F)cccc2C12COc1cc3c(cc12)CCO3 (stereo not drawn)
result: > 250 °C
//
molecule: Cc1ccc(F)c(NC(=O)c2ccccc2CN2C(=O)C3(COc4cc5c(cc43)CCO5)c3ccccc32)c1 (stereo not drawn)
result: 214 to 216 °C
//
molecule: Cc1nc2cc3c(cc2s1)C1(CO3)C(=O)Nc2ccccc21 (stereo not drawn)
result: > 250 °C
//
molecule: CN1C(=O)CC[C@H]1CN1C(=O)C2(COc3cc4c(cc32)CCO4)c2ccccc21 (stereo partly drawn)
result: 72 to 76 °C
//
molecule: O=C1N(Cc2ncccc2C(F)(F)F)c2ccccc2C12COc1c(Cl)cc3c(c12)OCCO3 (stereo not drawn)
result: 273 to 275 °C
//
molecule: Cl.N#CCCNCCCN1C(=O)C2(COc3cc4c(cc32)CCO4)c2ccccc21 (stereo not drawn)
result: 214 to 216 °C
//
molecule: CC(C)c1nc(CN2C(=O)C3(COc4cc5c(cc43)OCO5)c3cccc(C#N)c32)cs1 (stereo not drawn)
result: 162 to 163 °C
//
molecule: CN(C)c1ccc(-c2cccc3c2C2(COc4cc5c(cc42)CCO5)C(=O)N3Cc2ccc(C(F)(F)F)o2)cn1 (stereo not drawn)
result: 223 to 225 °C
//
molecule: COc1cc2c(cc1C#N)C1(CO2)C(=O)N(Cc2ccccn2)c2ccccc21 (stereo not drawn)
result: 187 to 189 °C
//
molecule: Cc1noc(C)c1-c1cccc2c1C1(COc3cc4c(cc31)OCCO4)C(=O)N2C (stereo not drawn)
result: 228 to 230 °C
//
molecule: O=C1N(C[C@H]2COCCO2)c2ccccc2C12COc1cc3c(cc12)OCCCO3 (stereo partly drawn)
result: 137 to 139 °C
//
molecule: COc1cc2c(cc1C)[C@]1(CO2)C(=O)Nc2ccccc21
result: > 250 °C
//
molecule: CCC(=O)Nc1cccc2c1C1(COc3cc4c(cc31)OCCO4)C(=O)N2C (stereo not drawn)
result: 224 to 226 °C
//
molecule: CN1C(=O)C2(COc3cc4c(cc32)OCCO4)c2c(C(=O)O)cccc21 (stereo not drawn)
result: 297 to 299 °C
//
molecule: O=C1N(Cc2cccnc2C(F)(F)F)c2ccccc2C12COc1cc3c(cc12)OCCO3 (stereo not drawn)
result: 219 to 220 °C
//
molecule: O=C1N(Cc2ccc(Cl)s2)c2cccc(-c3ccoc3)c2C12COc1cc3c(cc12)OCO3 (stereo not drawn)
result: 166 to 168 °C
//
molecule: O=C1N(Cc2cnccn2)c2ccccc2C12COc1cc3c(cc12)CCO3 (stereo not drawn)
result: 143 to 144 °C
//
molecule: COc1cc2c(cc1C#N)C1(CO2)C(=O)Nc2ccccc21 (stereo not drawn)
result: 185 to 186 °C
//
molecule: COC(=O)c1coc(CN2C(=O)C3(COc4cc5onc(C)c5cc43)c3ccccc32)n1 (stereo not drawn)
result: 148 to 152 °C
//
molecule: Nc1noc2cc3c(cc12)C1(CO3)C(=O)N(Cc2ccccc2C(F)(F)F)c2ccccc21 (stereo not drawn)
result: 262 to 264 °C
//
molecule: O=C1Nc2ccccc2C12COc1cc(F)c(F)cc12 (stereo not drawn)
result: > 200 °C
//
molecule: CN1C(=O)C2(COc3cc4c(cc32)OCCO4)c2c(C(=O)NCc3ccccn3)cccc21 (stereo not drawn)
result: 214 to 215 °C

====

tested.target: CYP3A4 (Homo sapiens)
Sequence (P08684 whole entry): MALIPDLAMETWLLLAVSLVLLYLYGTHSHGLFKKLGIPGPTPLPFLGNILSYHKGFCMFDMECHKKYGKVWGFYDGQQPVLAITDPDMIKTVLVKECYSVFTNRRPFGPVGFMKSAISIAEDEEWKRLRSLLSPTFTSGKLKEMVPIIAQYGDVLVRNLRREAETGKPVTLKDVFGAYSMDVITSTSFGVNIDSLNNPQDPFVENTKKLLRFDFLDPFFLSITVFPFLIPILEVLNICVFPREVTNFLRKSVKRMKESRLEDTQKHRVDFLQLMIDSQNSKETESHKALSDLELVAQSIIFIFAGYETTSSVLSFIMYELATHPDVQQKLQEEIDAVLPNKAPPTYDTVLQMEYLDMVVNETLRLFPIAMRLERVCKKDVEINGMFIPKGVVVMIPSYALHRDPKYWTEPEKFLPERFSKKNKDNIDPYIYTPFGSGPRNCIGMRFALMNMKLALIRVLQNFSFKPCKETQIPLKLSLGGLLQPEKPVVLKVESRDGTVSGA
assay.overview: Cytochrome P450 (CYP450) Inhibition Assay, CYP3A4 (Vivid fluorescence, BOMCC substrate)
condition.description: human, P450 Baculosomes (recombinant CYP3A4), probe BOMCC (Vivid substrate)
List of inhibition at 10 µM values.

compound: O=C1N(C[C@H]2CCCO2)c2ccccc2C12COc1cc3c(cc12)CCO3 (some centres unmarked)
inhibition at 10 µM: < 50%
--
compound: Cn1ccc2cc(-c3cccc4c3C3(COc5cc6c(cc53)CCO6)C(=O)N4C[C@H]3CCCO3)ccc21 (some centres unmarked)
inhibition at 10 µM: > 50%
--
compound: O=C(NCCCN1C(=O)C2(COc3cc4c(cc32)CCO4)c2ccccc21)c1ccccc1OC(F)(F)F (centres unmarked)
inhibition at 10 µM: > 50%
--
compound: COc1ccc2c(c1)OCC21C(=O)N(CC2CCCCO2)c2ccccc21 (centres unmarked)
inhibition at 10 µM: < 50%
--
compound: O=C1Nc2ccccc2C12COc1c2ccc2c1OCCO2 (centres unmarked)
inhibition at 10 µM: < 50%
--
compound: COc1cc2c(cc1C)C1(CO2)C(=O)N(Cc2ccccn2)c2ccccc21 (centres unmarked)
inhibition at 10 µM: > 50%
--
compound: O=C1N(Cc2cc(C(F)(F)F)ccc2F)c2ccccc2C12COc1cc3c(cc12)OCCO3 (centres unmarked)
inhibition at 10 µM: < 50%
--
compound: O=C1N(C[C@H]2CCCO2)c2cccc(-c3ccc(Oc4ccccc4)cc3)c2C12COc1cc3c(cc12)CCO3 (some centres unmarked)
inhibition at 10 µM: < 50%

====

tested.target: UniProtKB P08684
assay.overview: Cytochrome P450 (CYP450) Inhibition Assay, CYP3A4 (Vivid fluorescence, BOMCC substrate)
condition.description: human, P450 Baculosomes (recombinant CYP3A4), probe BOMCC (Vivid substrate)
Where a name gives a salt, the structure may show the parent alone.

compound: O=C1N(Cc2ccc3ncnn3c2)c2ccccc2C12COc1cc3c(cc12)OCCO3 (stereo not shown) [Example 39]
inhibition at 10 µM: > 50%

compound: O=C1N(CC2CNCCO2)c2ccccc2C12COc1cc3c(cc12)OCCO3 (stereo not shown) [Example 11.102]
inhibition at 10 µM: < 50%

compound: O=C1N(Cc2ncccc2C(F)(F)F)c2ccccc2C12COc1cc3c(c(F)c12)OCCO3 (stereo not shown) [Example 5.26]
inhibition at 10 µM: < 50%

compound: CN1C(=O)C2(COc3cc4c(cc32)OCCO4)c2c(-c3ccoc3)cccc21 (stereo not shown) [Example 16.68]
inhibition at 10 µM: > 50%

compound: O=C1N(Cc2ccc(=O)[nH]c2)c2ccccc2C12COc1cc3c(cc12)OCCO3 (stereo not shown) [Example 35]
inhibition at 10 µM: < 50%

compound: Nc1cc(-c2ccc(CN3C(=O)C4(COc5cc6c(cc54)OCCO6)c4ccccc43)cc2)[nH]n1 (stereo not shown) [Example 29.2, hydrochloride]
inhibition at 10 µM: > 50%

compound: O=C1N(Cc2cncs2)c2ccccc2C12COc1cc3c(cc12)OCCO3 (stereo not shown) [Example 7.11]
inhibition at 10 µM: > 50%

compound: O=C1N(Cc2ccc(C(F)(F)F)o2)c2ccccc2C12COc1cc3c(cc12)OC(F)(F)O3 (stereo not shown) [Example 2.34]
inhibition at 10 µM: > 50%

compound: CC(C)(C)OC(=O)N1C(=O)C2(COc3cc4c(cc32)OCCO4)c2ccccc21 (stereo not shown) [Example 18.2]
inhibition at 10 µM: < 50%

compound: CN1C(=O)C2(COc3cc4c(cc32)OCCO4)c2c(Oc3ccc(F)cc3)cccc21 (stereo not shown) [Example 16.87]
inhibition at 10 µM: > 50%

compound: O=C1N(Cc2ccc(N3CCOCC3)nc2)c2ccccc2C12COc1cc3c(cc12)OCCO3 (stereo not shown) [Example 32]
inhibition at 10 µM: > 50%

compound: O=C1N(C[C@H]2OC(O)[C@H](O)[C@@H](O)[C@H]2O)c2ccccc2C12COc1cc3c(cc12)OCCO3 (stereo partly shown) [Example 20]
inhibition at 10 µM: < 50%

compound: O=C1N(Cc2ncccc2Cl)c2ccccc2C12COc1cc3c(cc12)OCCO3 (stereo not shown) [Example 4.112]
inhibition at 10 µM: > 50%

compound: CCCNC(=O)CN1C(=O)C2(COc3cc4c(cc32)CCO4)c2ccccc21 (stereo not shown) [Example 12.51]
inhibition at 10 µM: > 50%

compound: O=C1N(C2CC2)c2ccccc2C12COc1cc3c(cc12)OCCO3 (stereo not shown) [Example 21]
inhibition at 10 µM: < 50%

compound: COCCOCCN1C(=O)C2(COc3cc4c(cc32)OCCO4)c2c(OC)cc(OC)cc21 (stereo not shown) [Example 9.73]
inhibition at 10 µM: > 50%
